study target: T1, human FLT3 (human, UniProt P36888 27-541, limits assumed)
T1 construct: Soluble analyte hFLT3 in SPR; also called hFLT3; huFlt3
T1 sequence: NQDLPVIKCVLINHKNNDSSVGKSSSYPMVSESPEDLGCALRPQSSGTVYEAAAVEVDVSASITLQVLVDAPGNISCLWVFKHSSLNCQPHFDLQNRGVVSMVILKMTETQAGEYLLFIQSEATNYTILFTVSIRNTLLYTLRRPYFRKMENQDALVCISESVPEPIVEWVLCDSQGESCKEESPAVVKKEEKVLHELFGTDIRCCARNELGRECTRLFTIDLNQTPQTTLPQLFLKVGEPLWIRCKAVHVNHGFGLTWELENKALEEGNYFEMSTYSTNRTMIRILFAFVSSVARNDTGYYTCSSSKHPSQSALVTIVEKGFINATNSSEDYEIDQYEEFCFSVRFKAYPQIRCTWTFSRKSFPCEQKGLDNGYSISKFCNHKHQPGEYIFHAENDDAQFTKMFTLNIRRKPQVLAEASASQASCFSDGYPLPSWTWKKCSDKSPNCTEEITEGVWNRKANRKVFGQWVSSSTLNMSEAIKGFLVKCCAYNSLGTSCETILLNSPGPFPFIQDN
assay info: SPR Biacore T200, 37C; scFv format
hey, just use 1 (yes) if measured Kd is less than 60 nM, otherwise 0 (no)

| binder | label |
| --- | --- |
| P5A3 (scFv format) (scFv, not shown: a dimerising Fc or GST; small tags and cut ends) scFv: QVQLVQSGAEVKKPGSSVKVSCKASGGTFSSYYIGWVRQAPGQGLEWMGGIIPWFGTANYAQKFQGRVTITADKSTNTAYMELSSLRSEDTAVYYCAADHHDSPSGYTSGGFDVWGQGTLVTVSSGGGGSGGGGSGGGGSQSALTQPASVSGSPGQSITISCTGTSSDVGGYNYVSWYQQHPGKAPKLMIYEVSKRPSGVPDRFSGSKSGNTASLTVSGLQAEDEADYYCSSYAGSNTVVFGGGTKLTVL | 0 (no) |
| P9B5 (scFv format) (scFv, not shown: a dimerising Fc or GST; small tags and cut ends) scFv: EVQLLESGGGLVQPGGSLRLSCAASGFIFASYAMSWVRQAPGKGLEWVSEISSSGGSTTYADSVKGRFTISRDNSKNTLYLQMNSLRAEDTAVYYCARDRVMAGLGYDPFDYWGQGTLVTVSSGGGGSGGGGSGGGGSQSVLTQPPSASGTPGQRVTISCSGSSSNIGSNYVYWYQQLPGTAPKLLIYRNNQRPSGVPDRFSGSKSGTSASLAISGLRSEDEADYYCAAWDDSLSGVVFGGGTKLTVL | 1 (yes) |
| P3E10 (scFv format) (scFv) scFv: QVQLVQSGAEVKKPGSSVKVSCKASGGTFSSYAIQWVRQAPGQGLEWMGGIVGSWGLANYAQKFQGRVTITTDKSTSTAYMELSSLRSEDTAVYYCATSAFGELASWGQGTLVTVSSGGGGSGGGGSGGGGSEIVLTQSPGTLSLSPGERATLSCRASQSVPSSQLAWYQQKPGQAPRLLIYDASSRATGIPDRFSGSGSGTDFTLTISRLEPEDFAVYYCQQYGSSPLTFGQGTKVEIK | 0 (no) |
| P1B4 (scFv format) (scFv, not shown: a dimerising Fc or GST; small tags and cut ends) scFv: QVQLVQSGAEVKKPGSSVKVSCKASGGVFSRYALSWVRQAPGQGLEWMGGIIPMLGFANYAQKFQGRVTITADESTSTAYMELSSLRSEDTAVYYCATLDFGALDYWGQGTLVTVSSGGGGSGGGGSGGGGSEIVLTQSPGTLSLSPGERATLSCRASQSVPNEQLAWYQQKPGQAPRLLIYDASSRATGIPDRFSGSGSGTDFTLTISRLEPEDFAVYYCQQYGSPPLTFGQGTKVEIK | 1 (yes) |
